Taken from PubChem BioAssay (NCI).

system: SK-MEL-28 melanoma; assay: NCI tumour cell line growth inhibition, 48 h
quantityKind: TGI

See these solved cases before continuing.
{"columns": ["compound", "TGI"],
 "data": [
  ["C=C(c1ccccc1)C1(O)CCCCC1N (stereo unspecified)", "> 100 µM"],
  ["COc1ccc(N2CC(=O)N(C(=O)COc3ccc(OCC(=O)N4C(=O)CN(c5ccc(OC)cc5)C4=S)cc3)C2=S)cc1", "> 100 µM"],
  ["Cc1ccc2c(c1)-c1nc(N)c(C#N)c(-c3ccc(Cl)cc3)c1CCS2(=O)=O", "> 100 µM"],
  ["c1ccc(C2ONC3=NCCN32)cc1 (stereo unspecified)", "> 100 µM"],
  ["O=c1[nH]c2nc3ccccc3c(=O)n2/c1=C/c1ccc(Cl)cc1", "> 100 µM"]
]}

Pending compound:
Documented TGI of "N#C[Se]Cc1cc(-c2ccccc2)n(-c2ccc(S(N)(=O)=O)cc2)n1" : 1.34 µM
